METHOD NOTES: Cytotoxicity against C57BL/6 mouse BV-2 cells assessed as survival rate at 30 uM incubated for 24 hrs by MTT assay relative to control
Type: toxicity, cell-based
TEST PARAMETERS: read-out: Survival
Kindly supply the reported viability at 24 h, 30 µM values for the records listed here.
Answers are plain numbers, in %.

The cases that follow already have their viability at 24 h, 30 µM on record.
Look up viability at 24 h, 30 µM for this compound: `CCCCCCC(=O)Nc1ccccc1C(=O)O[C@@]12CC[C@H](OC)[C@]34C([C@@H](C[C@H]13)[C@@]1(O)C[C@H](OC)[C@H]3C[C@@H]4[C@]1(O)[C@H]3OC)N(CC)C2`
100

Look up viability at 24 h, 30 µM for this compound: `CCN1C[C@]2(OC(=O)c3ccccc3NC(=O)CC(C)(C)C)CC[C@H](OC)[C@]34C1[C@@H](C[C@H]23)[C@@]1(O)C[C@H](OC)[C@H]2C[C@@H]4[C@]1(O)[C@H]2OC`
106

Look up viability at 24 h, 30 µM for this compound: `CCN1C[C@]2(COC)CC[C@H](OC)[C@]34C1[C@@H](C[C@H]23)[C@@]1(O)C[C@H](OC)[C@H]2C[C@@H]4[C@]1(O)[C@H]2OC(=O)c1ccccc1N`
101

Look up viability at 24 h, 30 µM for this compound: `CCN1C[C@]2(OC(=O)c3ccccc3NC(=O)S(=O)(=O)c3ccc(Br)s3)CC[C@H](OC)[C@]34C1[C@@H](C[C@H]23)[C@@]1(O)C[C@H](OC)[C@H]2C[C@@H]4[C@]1(O)[C@H]2OC`
103

Attention now shifts to the item below.
Look up viability at 24 h, 30 µM for this compound: `CCN1C[C@]2(OC(=O)c3ccccc3NC(=O)S(=O)(=O)c3ccccc3Cl)CC[C@H](OC)[C@]34C1[C@@H](C[C@H]23)[C@@]1(O)C[C@H](OC)[C@H]2C[C@@H]4[C@]1(O)[C@H]2OC`
100
